Test system: HeLa Kyoto
Test: solubility in G1/S (NP-40 vs SDS abundance) (log2 ratio); higher = more soluble
Conditions: cell cycle stage: G1/S
REPORTED_ENDPOINT: solubility in G1/S (log2)
Form field (numeric): enter value without unit.

ORDERED_RESIDUES	solubility in G1/S (log2)
MAAPAPGAGAASGGAGCSGGGAGAGAGSGSGAAGAGGRLPSRVLELVFSYLELSELRSCALVCKHWYRCLHGDENSEVWRSLCARSLAEEALRTDILCNLPSYKAKIRAFQHAFSTNDCSRNVYIKKNGFTLHRNPIAQSTDGARTKIGFSEGRHAWEVWWEGPLGTVAVIGIATKRAPMQCQGYVALLGSDDQSWGWNLVDNNLLHNGEVNGSFPQCNNAPKYQIGERIRVILDMEDKTLAFERGYEFLGVAFRGLPKVCLYPAVSAVYGNTEVTLVYLGKPLDG [FBXO45]	0.344

Turning now to a further record.
Reported solubility in G1/S (log2) for MQAERGARGGRGRRPGRGRPGGDRHSERPGAAAAVARGGGGGGGGDGGGRRGRGRGRGFRGARGGRGGGGAPRGSRREPGGWGAGASAPVEDDSDAETYGEENDEQGNYSKRKIVSNWDRYQDIEKEVNNESGESQRGTDFSVLLSSAGDSFSQFRFAEEKEWDSEASCPKQNSAFYVDSELLVRALQELPLCLRLNVAAELVQGTVPLEVPQVKPKRTDDGKGLGMQLKGPLGPGGRGPIFELKSVAAGCPVLLGKDNPSPGPSRDSQKPTSPLQSAGDHLEEELDLLLNLDAPIKEGDNILPDQTSQDLKSKEDGEVVQEEEVCAKPSVTEEKNMEPEQPSTSKNVTEEELEDWLDSMIS [AVEN] : what is it?
0.312

* * *

// reported solubility change mitosis (log2) per item
Tested on: HeLa Kyoto
Assay: solubility change mitosis vs G1/S (difference of NP-40 vs SDS log2 ratios) (log2 ratio difference); higher = more soluble in mitosis
A bare number is all that is needed in reply.

ORDERED_RESIDUES	TARGET_DESC	solubility change mitosis (log2)
MEAEESEKAATEQEPLEGTEQTLDAEEEQEESEEAACGSKKRVVPGIVYLGHIPPRFRPLHVRNLLSAYGEVGRVFFQAEDRFVRRKKKAAAAAGGKKRSYTKDYTEGWVEFRDKRIAKRVAASLHNTPMGARRRSPFRYDLWNLKYLHRFTWSHLSEHLAFERQVRRQRLRAEVAQAKRETDFYLQSVERGQRFLAADGDPARPDGSWTFAQRPTEQELRARKAARPGGRERARLATAQDKARSNKGLLARIFGAPPPSESMEGPSLVRDS [ABT1]	HeLa Kyoto	0.803
MASLEVSRSPRRSRRELEVRSPRQNKYSVLLPTYNERENLPLIVWLLVKSFSESGINYEIIIIDDGSPDGTRDVAEQLEKIYGSDRILLRPREKKLGLGTAYIHGMKHATGNYIIIMDADLSHHPKFIPEFIRKQKEGNFDIVSGTRYKGNGGVYGWDLKRKIISRGANFLTQILLRPGASDLTGSFRLYRKEVLEKLIEKCVSKGYVFQMEMIVRARQLNYTIGEVPISFVDRVYGESKLGGNEIVSFLKGLLTLFATT [DPM1]	HeLa Kyoto	0.0355
MAPARLFALLLFFVGGVAESIRETEVIDPQDLLEGRYFSGALPDDEDVVGPGQESDDFELSGSGDLDDLEDSMIGPEVVHPLVPLDNHIPERAGSGSQVPTEPKKLEENEVIPKRISPVEESEDVSNKVSMSSTVQGSNIFERTEVLAALIVGGIVGILFAVFLILLLMYRMKKKDEGSYDLGKKPIYKKAPTNEFYA [SDC4]	HeLa Kyoto	0.235

Param item = MVSDEDELNLLVIVVDANPIWWGKQALKESQFTLSKCIDAVMVLGNSHLFMNRSNKLAVIASHIQESRFLYPGKNGRLGDFFGDPGNPPEFNPSGSKDGKYELLTSANEVIVEEIKDLMTKSDIKGQHTETLLAGSLAKALCYIHRMNKEVKDNQEMKSRILVIKAAEDSALQYMNFMNVIFAAQKQNILIDACVLDSDSGLLQQACDITGGLYLKVPQMPSLLQYLLWVFLPDQDQRSQLILPPPVHVDYRAACFCHRNLIEIGYVCSVCLSIFCNFSPICTTCETAFKISLPPVLKAKKKKLKVSA [GTF2H3] ; retrieve measured solubility change mitosis (log2).
0.117

* * *

Documented melting temperature across a set of sequences
Test system: HeLa Kyoto
Assay: melting temperature (median over replicates), in situ; higher = more thermally stable
Conditions: cell cycle stage: G1/S
Use °C as the unit, but write only the number.

ORDERED_RESIDUES	TARGET_DESC	melting temperature / °C
MVAPVWYLVAAALLVGFILFLTRSRGRAASAGQEPLHNEELAGAGRVAQPGPLEPEEPRAGGRPRRRRDLGSRLQAQRRAQRVAWAEADENEEEAVILAQEEEGVEKPAETHLSGKIGAKKLRKLEEKQARKAQREAEEAEREERKRLESQREAEWKKEEERLRLEEEQKEEEERKAREEQAQREHEEYLKLKEAFVVEEEGVGETMTEEQSQSFLTEFINYIKQSKVVLLEDLASQVGLRTQDTINRIQDLLAEGTITGVIDDRGKFIYITPEELAAVANFIRQRGRVSIAELAQASNSLIAWGRESPAQAPA [DDRGK1]	HeLa Kyoto	52.9
MKVLLLKDAKEDDCGQDPYIRELGLYGLEATLIPVLSFEFLSLPSFSEKLSHPEDYGGLIFTSPRAVEAAELCLEQNNKTEVWERSLKEKWNAKSVYVVGNATASLVSKIGLDTEGETCGNAEKLAEYICSRESSALPLLFPCGNLKREILPKALKDKGIAMESITVYQTVAHPGIQGNLNSYYSQQGVPASITFFSPSGLTYSLKHIQELSGDNIDQIKFAAIGPTTARALAAQGLPVSCTAESPTPQALATGIRKALQPHGCC [UROS]	HeLa Kyoto	51.5

Now, please, on to the next sequence.
Requested field: melting temperature. Item: MERAVPLAVPLGQTEVFQALQRLHMTIFSQSVSPCGKFLAAGNNYGQIAIFSLSSALSSEAKEESKKPVVTFQAHDGPVYSMVSTDRHLLSAGDGEVKAWLWAEMLKKGCKELWRRQPPYRTSLEVPEINALLLVPKENSLILAGGDCQLHTMDLETGTFTRVLRGHTDYIHCLALRERSPEVLSGGEDGAVRLWDLRTAKEVQTIEVYKHEECSRPHNGRWIGCLATDSDWMVCGGGPALTLWHLRSSTPTTIFPIRAPQKHVTFYQDLILSAGQGRCVNQWQLSGELKAQVPGSSPGLLSLSLNQQPAAPECKVLTAAGNSCRVDVFTNLGYRAFSLSF [THOC6]
51.8

* * *

Tested on: HeLa Kyoto
Experiment: melting temperature (median over replicates), in situ; higher = more thermally stable
Details: cell cycle stage: mitosis
REPORTED_ENDPOINT: melting temperature (°C)
The figure you give is taken to be in °C; do not add the unit.

Examples from the recorded data:
ORDERED_RESIDUES	READOUT_UNIT	melting temperature
MSASLVRATVRAVSKRKLQPTRAALTLTPSAVNKIKQLLKDKPEHVGVKVGVRTRGCNGLSYTLEYTKTKGDSDEEVIQDGVRVFIEKKAQLTLLGTEMDYVEDKLSSEFVFNNPNIKGTCGCGESFNI [ISCA1]	°C	51.9
MHRDSCPLDCKVYVGNLGNNGNKTELERAFGYYGPLRSVWVARNPPGFAFVEFEDPRDAADAVRELDGRTLCGCRVRVELSNGEKRSRNRGPPPSWGRRPRDDYRRRSPPPRRRSPRRRSFSRSRSRSLSRDRRRERSLSRERNHKPSRSFSRSRSRSRSNERK [SRSF3]	°C	54.2

Entry under review: MPFPFGKSHKSPADIVKNLKESMAVLEKQDISDKKAEKATEEVSKNLVAMKEILYGTNEKEPQTEAVAQLAQELYNSGLLSTLVADLQLIDFEGKKDVAQIFNNILRRQIGTRTPTVEYICTQQNILFMLLKGYESPEIALNCGIMLRECIRHEPLAKIILWSEQFYDFFRYVEMSTFDIASDAFATFKDLLTRHKLLSAEFLEQHYDRFFSEYEKLLHSENYVTKRQSLKLLGELLLDRHNFTIMTKYISKPENLKLMMNLLRDKSRNIQFEAFHVFKVFVANPNKTQPILDILLKNQAKLIEFLSKFQNDRTEDEQFNDEKTYLVKQIRDLKRPAQQEA [CAB39] . Reported melting temperature?
55.4

Look up melting temperature: MASNVTNKTDPRSMNSRVFIGNLNTLVVKKSDVEAIFSKYGKIVGCSVHKGFAFVQYVNERNARAAVAGEDGRMIAGQVLDINLAAEPKVNRGKAGVKRSAAEMYGSVTEHPSPSPLLSSSFDLDYDFQRDYYDRMYSYPARVPPPPPIARAVVPSKRQRVSGNTSRRGKSGFNSKSGQRGSSKSGKLKGDDLQAIKKELTQIKQKVDSLLENLEKIEKEQSKQAVEMKNDKSEEEQSSSSVKKDETNVKMESEGGADDSAEEGDLLDDDDNEDRGDDQLELIKDDEKEAEEGEDDRDSANGEDDS [HNRNPC]
49.5

Looking for the measured melting temperature of MASLEVSRSPRRSRRELEVRSPRQNKYSVLLPTYNERENLPLIVWLLVKSFSESGINYEIIIIDDGSPDGTRDVAEQLEKIYGSDRILLRPREKKLGLGTAYIHGMKHATGNYIIIMDADLSHHPKFIPEFIRKQKEGNFDIVSGTRYKGNGGVYGWDLKRKIISRGANFLTQILLRPGASDLTGSFRLYRKEVLEKLIEKCVSKGYVFQMEMIVRARQLNYTIGEVPISFVDRVYGESKLGGNEIVSFLKGLLTLFATT [DPM1] , can you help?
52.7

Return reported melting temperature; argument: MSMEDYDFLFKIVLIGNAGVGKTCLVRRFTQGLFPPGQGATIGVDFMIKTVEINGEKVKLQIWDTAGQERFRSITQSYYRSANALILTYDITCEESFRCLPEWLREIEQYASNKVITVLVGNKIDLAERREVSQQRAEEFSEAQDMYYLETSAKESDNVEKLFLDLACRLISEARQNTLVNNVSSPLPGEGKSISYLTCCNFN [RAB30]
51.7

Would you mind telling me what melting temperature value was observed for MSRLLPLLRSRTARSLRPGPAAAAAPRPPSWCCCGRGLLALAPPGGLPGGPRRLGTHPKKEPMEALNTAQGARDFIYSLHSTERSCLLKELHRFESIAIAQEKLEAPPPTPGQLRYVFIHNAIPFIGFGFLDNAIMIVAGTHIEMSIGIILGISTMAAAALGNLVSDLAGLGLAGYVEALASRLGLSIPDLTPKQVDMWQTRLSTHLGKAVGVTIGCILGMFPLIFFGGGEEDEKLETKS [TMEM65] ?
55.9

// returns reported melting temperature for input MAATAREDGASGQERGQRGCEHYDRGCLLKAPCCDKLYTCRLCHDNNEDHQLDRFKVKEVQCINCEKIQHAQQTCEECSTLFGEYYCDICHLFDKDKKQYHCENCGICRIGPKEDFFHCLKCNLCLAMNLQGRHKCIENVSRQNCPICLEDIHTSRVVAHVLPCGHLLHRTCYEEMLKEGYRCPLCMHSALDMTRYWRQLDDEVAQTPMPSEYQNMTVDILCNDCNGRSTVQFHILGMKCKICESYNTAQAGGRRISLDQQ [RCHY1]
52.3
